protocolNotes: MTT cytotoxicity assay
Format: cell-based, human
conditionContext: human; HEK293 cells, 72 hours incubation; read-out: IC50 (cytotoxicity, MTT)
Method: […] Cells were seeded at 4000 cells/well in 100 μL/well in a 96-well plate and incubated for 24 hours. […] The absorbance at 570 nm was measured using a plate reader. With the new nitrido-bridged ruthenium compounds C-2 and C-3 prepared, MCU-inhibitory properties of these compounds were evaluated and their activities compared to C-1, the oxo-bridged Ru360 analogue of the conventional art (S. R. Nathan et al., Inorg. Chem. 2017, 56, 3123-3126 and S. R. Nathan et al., J. Vis. Exp. 2017, 56527). […]
measurementType: CC50 at 72 h (µM)
# unit: µM | format: bare number

Please give the measured CC50 at 72 h for this compound: N.N.N.N.N.N.N.N.[Cl-].[Cl-].[N-3].[Ru+4].[Ru+4] [C-2, [Ru2(μ-N)(NH3)8Cl2]Cl3] 195
